A collection of molecules and their measured IC50
test target: human Factor XIIa (Homo sapiens (Human))
Field: numeric (nM). Do not append units.

// below: answered molecules
INSERT INTO results (molecule, u, recorded_measurement) VALUES
  ('CS(=O)(=O)NCCCC[C@@H](NC1CCC2(CC1)CCN(Cc1ccccc1)C2)C(=O)N1CCN(C(=O)Oc2ccccc2Cl)C[C@H]1C(=O)NCc1cccs1 (stereo partly drawn)', 'nM', 8.1),
  ('C[C@@H]1N=C(N2CCN(C(=O)[C@@H](CC3CCN(C4CCCCC4)CC3)NC3CCCCC3)[C@H](C(=O)NCc3cccs3)C2)O[C@H]1c1ccccc1', 'nM', 2.4),
  ('COc1cc(CNC(=O)[C@@H]2CN(C(=O)Oc3cccc(CN)c3)CCN2C(=O)[C@@H](CCCCNS(C)(=O)=O)NC2CCC3(CC2)CCN(Cc2ccccc2)C3)ccc1CN (stereo partly drawn)', 'nM', 4.1),
  ('NCc1ccc(OC(=O)N2CCN(C(=O)[C@@H](CC3CCCCC3)NC3CCC4(CC3)CCN(Cc3ccccc3)C4)[C@H](C(=O)NCc3cccs3)C2)c2ccccc12 (stereo partly drawn)', 'nM', 4.6),
  ('NCc1ccc(OC(=O)N2CCN(C(=O)[C@@H](CC3CCCCC3)NC3CCCCC3)[C@H](C(=O)NCc3cccs3)C2)c(Cl)c1', 'nM', 6.7);

Prompt: Item: CN(C)CCCC[C@@H](NC1CCC2(CC1)CCN(Cc1ccccc1)C2)C(=O)N1CCN(C2=NC(C)(C)CO2)C[C@H]1C(=O)NCc1cccs1 (stereo partly drawn) Test system: human Factor XIIa (Homo sapiens (Human)) Read-out: IC50 Value: ?
Response: 9.2

###

Observed log10 IC50 for human Factor XIIa (Homo sapiens (Human), UniProt P00748), reported per entry below.
log10 IC50, nM

// below: answered molecules
INSERT INTO measurements (molecule, endpoint_name, recorded_measurement) VALUES
  ('Cc1ncnc2c(OC(=O)N3CCN(C(=O)[C@@H](CC4CCCCC4)NC4CCCCC4)[C@H](C(=O)NCc4cccs4)C3)cccc12', 'log10 IC50', 0.52),
  ('O=C(NCc1cccs1)[C@@H]1CN(C(=O)Oc2ccccc2Cl)CCN1C(=O)[C@@H](CCCCN1CCOCC1)NC1CCC2(CC1)CCN(Cc1ccccc1)C2 (stereo partly drawn)', 'log10 IC50', 0.26),
  ('COc1cc(CNC(=O)[C@@H]2CN(C3=NC(C)(C)[C@H](c4ccccc4)O3)CCN2C(=O)[C@@H](CCCCN(C)C)N(C)C)ccc1CN', 'log10 IC50', 0.87),
  ('COc1cc(CNC(=O)[C@@H]2CN(C(=O)Oc3cccc4ccccc34)CCN2C(=O)[C@@H](CC2CCCCC2)NC2CCCCC2)ccc1CN', 'log10 IC50', 0.20),
  ('C[C@@H]1N=C(N2CCN(C(=O)[C@@H](CCCCN3CCCCC3)NC3CCC(CN)CC3)[C@H](C(=O)NCc3ccc4[nH]cc(Cl)c4c3)C2)O[C@H]1c1ccccc1 (stereo partly drawn)', 'log10 IC50', -0.22);

Moving on to the next molecule.
Prompt: Item: O=C(NCc1cccs1)[C@@H]1CN(C(=O)Oc2ccc(F)c3cccnc23)CCN1C(=O)[C@@H](CC1CCCCC1)NC1CCCCC1 Test system: human Factor XIIa (Homo sapiens (Human), UniProt P00748) Read-out: log10 IC50 Value: ?
Response: 0.72

###

test target: human Factor XIIa (Homo sapiens (Human))
endpoint name: log10(IC50) (log10 of the value in nM)
log10 IC50, nM

INSERT INTO results (compound, test_target, endpoint_name, recorded_measurement) VALUES
  ('COc1cc(CNC(=O)[C@@H]2CN(C(=O)Oc3ccc4ccccc4c3Cl)CCN2C(=O)[C@@H](CC2CCCCC2)NC2CCCCC2)ccc1CN [Example 44]', 'human Factor XIIa (Homo sapiens (Human))', 'log10(IC50)', 0.43);

Prompt: Item: CN(C)CCCC[C@@H](NC1CCCCC1)C(=O)N1CCN(C(=O)Oc2ccccc2Cl)C[C@H]1C(=O)NCc1cccs1 [Example 73] Test system: human Factor XIIa (Homo sapiens (Human)) Read-out: log10(IC50) Value: ?
Response: 0.04

Prompt: Item: CC(C)NCCCC[C@@H](NC(C)C)C(=O)N1CCN(C2=N[C@@H](C)[C@H](c3ccccc3)O2)C[C@H]1C(=O)NCc1cccc(Cl)c1 [Example 166] Test system: human Factor XIIa (Homo sapiens (Human)) Read-out: log10(IC50) Value: ?
Response: 0.83

Prompt: Item: C[C@@H]1N=C(N2CCN(C(=O)[C@@H](CCCCNS(C)(=O)=O)NC3CCCCC3)[C@H](C(=O)NCc3cccs3)C2)O[C@H]1c1cccc(CN)c1 [Example 117] Test system: human Factor XIIa (Homo sapiens (Human)) Read-out: log10(IC50) Value: ?
Response: 0.72

Prompt: Item: C[C@@H]1N=C(N2CCN(C(=O)[C@H](N)CCCCN3CCCCC3)[C@H](C(=O)NCc3cc4cnccc4s3)C2)O[C@H]1c1ccccc1 [Example 163] Test system: human Factor XIIa (Homo sapiens (Human)) Read-out: log10(IC50) Value: ?
Response: 1.18

Prompt: Item: CC(C)(C)C(=O)N1CCC([C@@H](NC2CCCCC2)C(=O)N2CCN(C(=O)Oc3ccccc3Cl)C[C@H]2C(=O)NCc2cccs2)CC1 [Example 69] Test system: human Factor XIIa (Homo sapiens (Human)) Read-out: log10(IC50) Value: ?
Response: 0.92

###

test target: human Factor XIIa (Homo sapiens (Human))
endpoint name: pIC50
Recall that pIC50 is obtained by taking minus log10 of the concentration measured in molar.

// below: answered molecules
INSERT INTO results (molecule, recorded_measurement) VALUES
  ('CCS(=O)(=O)N1CCC([C@@H](NC2CCCCC2)C(=O)N2CCN(C(=O)Oc3ccccc3Cl)C[C@H]2C(=O)NCc2cccs2)CC1', 8.38),
  ('CS(=O)(=O)NCCCC[C@@H](NC1CCC2(CC1)CCN(Cc1ccccc1)C2)C(=O)N1CCN(C(=O)Oc2cccc(CN)c2Cl)C[C@H]1C(=O)NCc1cccs1 (stereo partly drawn)', 8.68),
  ('C[C@@H]1N=C(N2CCN(C(=O)[C@H](N)CCCCN3CCCCC3)[C@H](C(=O)NCc3ccc4[nH]cc(Cl)c4c3)C2)O[C@H]1c1ccccc1', 8.08),
  ('COc1cc(CNC(=O)[C@@H]2CN(C3=NC(C)(C)[C@H](c4ccccc4)O3)CCN2C(=O)[C@@H](CCCCN(C)C)N(C)C)ccc1C(N)=O', 7.91);

Prompt: Recorded pIC50 of Cc1ccc(OC(=O)N2CCN(C(=O)[C@H](N)CCCCN(C)C)[C@H](C(=O)NCc3cccs3)C2)c(Cl)c1C , please.
Response: 8.14

Prompt: Recorded pIC50 of NCc1cccc(OC(=O)N2CCN(C(=O)[C@@H](CC3CCCCC3)NC3CCCCC3)[C@H](C(=O)NCc3cccs3)C2)c1Cl , please.
Response: 8.96

###

test target: human Factor XIIa (Homo sapiens (Human), UniProt P00748)
Sequence (P00748 373-615): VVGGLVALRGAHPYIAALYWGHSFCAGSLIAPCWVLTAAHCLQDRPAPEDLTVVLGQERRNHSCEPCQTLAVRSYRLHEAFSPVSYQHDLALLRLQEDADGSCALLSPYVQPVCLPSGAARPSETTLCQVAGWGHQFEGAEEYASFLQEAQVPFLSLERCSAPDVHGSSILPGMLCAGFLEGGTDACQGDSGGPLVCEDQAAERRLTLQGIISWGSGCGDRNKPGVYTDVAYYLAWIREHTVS
experimental protocol: Factor XIIa Assay
Type: biochemical
settings: purified human Factor XIIa 500 pM; substrate n-Acetyl-Lys-Pro-Arg-AFC 100 μM; pH 7.4; read-out: FXIIa IC50
Procedure: The effectiveness of a compound of the present invention as an inhibitor of Coagulation Factor XIIa can be determined using a relevant purified serine protease, and an appropriate synthetic substrate. The rate of hydrolysis of the chromogenic or fluorogenic substrate by the relevant serine protease was measured both in the absence and presence of compounds of the present invention. […] A decrease in the rate of fluorescence change in the presence of inhibitor is indicative of enzyme inhibition. […]
endpoint name: pIC50
Recall that pIC50 is obtained by taking minus log10 of the concentration measured in molar.

// below: answered molecules
INSERT INTO assay_data (molecule, recorded_measurement) VALUES
  ('CS(=O)(=O)N1CCC([C@@H](NC2CCCCC2)C(=O)N2CCN(C(=O)Oc3ccccc3Cl)C[C@H]2C(=O)NCc2cccs2)CC1', 8.22),
  ('COc1cc(CNC(=O)[C@@H]2CN(C(=O)Oc3ccc4ccccc4c3Cl)CCN2C(=O)[C@@H](CCCCN(C)C)N(C)C2CCC3(CC2)CCN(Cc2ccccc2)C3)ccc1CN (stereo partly drawn)', 9.00),
  ('CC(C)N[C@H](CCCCN1CCCCC1)C(=O)N1CCN(C2=N[C@@H](C)[C@H](c3ccccc3)O2)C[C@H]1C(=O)NCc1cc(CN)cs1', 8.34),
  ('O=C(NCc1cccs1)[C@@H]1CN(C(=O)Oc2cccc3c2CNCC3)CCN1C(=O)[C@@H](CC1CCCCC1)NC1CCCCC1', 8.28);

Prompt: Item: O=C(NCc1cccs1)[C@@H]1CN(C(=O)Oc2ccccc2Cl)CCN1C(=O)[C@@H](CCCCN1CCCS1(=O)=O)NC1CCCCC1 Test system: human Factor XIIa (Homo sapiens (Human), UniProt P00748) Read-out: pIC50 Value: ?
Response: 8.34

Prompt: Item: C[C@@H]1N=C(N2CCN(C(=O)[C@@H](CCCCNS(C)(=O)=O)NC3CCCCC3)[C@H](C(=O)NCc3cccs3)C2)O[C@@H]1c1ccccc1 Test system: human Factor XIIa (Homo sapiens (Human), UniProt P00748) Read-out: pIC50 Value: ?
Response: 7.47

Prompt: Item: CS(=O)(=O)NCCCC[C@@H](NC1CCCC1)C(=O)N1CCN(C(=O)Oc2ccc3ccccc3c2Cl)C[C@H]1C(=O)NCc1cccs1 Test system: human Factor XIIa (Homo sapiens (Human), UniProt P00748) Read-out: pIC50 Value: ?
Response: 8.08

Prompt: Item: O=C(NCc1cccs1)[C@@H]1CN(C(=O)Oc2ccccc2Cl)CCN1C(=O)[C@@H](CCCCN1CCCCC1)NC1CCCCC1 Test system: human Factor XIIa (Homo sapiens (Human), UniProt P00748) Read-out: pIC50 Value: ?
Response: 9.15

Prompt: Item: Cc1ccc(OC(=O)N2CCN(C(=O)[C@@H](CC3CCCCC3)NC3CCCCC3)[C@H](C(=O)NCc3cccs3)C2)c(Cl)c1C Test system: human Factor XIIa (Homo sapiens (Human), UniProt P00748) Read-out: pIC50 Value: ?
Response: 8.12

Prompt: Item: CS(=O)(=O)NCCCC[C@@H](NC1CCC2(CC1)CCN(Cc1ccccc1)C2)C(=O)N1CCN(C(=O)Oc2cccc3c2CCNC3)C[C@H]1C(=O)NCc1cccs1 (stereo partly drawn) Test system: human Factor XIIa (Homo sapiens (Human), UniProt P00748) Read-out: pIC50 Value: ?
Response: 8.47

Prompt: Item: Cc1cccc([C@@H]2OC(N3CCN(C(=O)[C@@H](CCCCNS(C)(=O)=O)NC4CCCCC4)[C@H](C(=O)NCc4cccs4)C3)=N[C@H]2C)c1 Test system: human Factor XIIa (Homo sapiens (Human), UniProt P00748) Read-out: pIC50 Value: ?
Response: 7.99

Prompt: Item: Cc1ccc(OC(=O)N2CCN(C(=O)[C@@H](CCCCN(C)C)N(C)C3CCCCC3)[C@H](C(=O)NCc3cccs3)C2)c(Cl)c1C Test system: human Factor XIIa (Homo sapiens (Human), UniProt P00748) Read-out: pIC50 Value: ?
Response: 10.00
